# testedTarget: furin, P09958;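 note: purified furin at 1:10 enzyme:substrate in 50 mM HEPES pH 7.5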
# Sequence (P09958 whole entry): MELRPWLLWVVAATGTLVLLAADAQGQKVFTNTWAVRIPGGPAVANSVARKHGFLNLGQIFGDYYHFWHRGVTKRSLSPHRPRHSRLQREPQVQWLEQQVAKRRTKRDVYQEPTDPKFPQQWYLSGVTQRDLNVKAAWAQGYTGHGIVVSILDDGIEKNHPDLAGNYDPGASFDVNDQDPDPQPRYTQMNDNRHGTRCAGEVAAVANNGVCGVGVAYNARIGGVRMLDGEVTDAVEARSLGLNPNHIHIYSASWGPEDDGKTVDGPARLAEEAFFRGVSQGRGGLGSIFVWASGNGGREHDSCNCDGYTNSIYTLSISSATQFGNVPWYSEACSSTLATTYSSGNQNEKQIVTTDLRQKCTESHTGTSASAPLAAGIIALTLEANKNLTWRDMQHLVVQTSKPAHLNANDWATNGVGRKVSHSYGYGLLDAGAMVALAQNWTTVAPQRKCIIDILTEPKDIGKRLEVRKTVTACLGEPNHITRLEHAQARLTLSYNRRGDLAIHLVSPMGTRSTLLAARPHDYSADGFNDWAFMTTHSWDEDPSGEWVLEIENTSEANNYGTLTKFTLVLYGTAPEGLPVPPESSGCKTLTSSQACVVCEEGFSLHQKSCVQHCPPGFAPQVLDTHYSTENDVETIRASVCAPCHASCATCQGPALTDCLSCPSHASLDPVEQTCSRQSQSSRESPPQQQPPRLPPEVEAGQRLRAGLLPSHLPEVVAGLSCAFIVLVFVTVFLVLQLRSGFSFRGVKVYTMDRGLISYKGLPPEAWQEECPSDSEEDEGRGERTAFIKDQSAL
# experimentSummary: furin cleavage Z-score vs untreated control; higher = more cleavage, active = 3.5 or more, inactive = 1 or less, 8 variable residues between constant flanks
# experimentalSetup: 15 min
This is one part of the list. The true hit rate is not given.
Kindly supply the reported furin cleavage Z-score values for the records listed here.

Some sequences with recorded furin cleavage Z-score:
[[record]]
polymersequence = "CAIHRRTPRSAGNASASA [FS-1213]"
recordedmetric = "furin cleavage Z-score"
result = "8.47 (active)"

[[record]]
polymersequence = "CASTPCSAHDAGNASASA [HC2571]"
recordedmetric = "furin cleavage Z-score"
result = "-0.24 (inactive)"

[[record]]
polymersequence = "CAPVPRQRRPAGNASASA [FS-557]"
recordedmetric = "furin cleavage Z-score"
result = "0.43 (inactive)"

[[record]]
polymersequence = "CAPVFRQKRSAGNASASA [FS-620]"
recordedmetric = "furin cleavage Z-score"
result = "12.3 (active)"

[[record]]
polymersequence = "CARVYRQKRSAGNASASA [FS-561]"
recordedmetric = "furin cleavage Z-score"
result = "12.4 (active)"

[[record]]
polymersequence = "CATWMNSTGFAGNASASA [HC437]"
recordedmetric = "furin cleavage Z-score"
result = 2.27


// below: furin cleavage Z-score requested for another sequence
Q: Reported furin cleavage Z-score for CAHQNIVDVQAGNASASA [HC507] : what is it?
Ans: -1.38 (inactive)
